System: Digitaria sanguinalis
Test: Post-emergence herbicidal activity against Digitaria sanguinalis (hairy crabgrass) assessed as reduction of seed germination at 1000 ppm after 5 to 25 days by pot test
Format: functional, organism-based
Activity calls are given as the source filed them. No cut-off for these calls is given here.
property: Activity

S=c1[nH]nc(COc2ccccc2Cl)n1/N=C/c1ccc(-c2ccc(Cl)cc2Cl)o1: inactive
Cc1cc(OCc2nn(CNc3ccc(F)c(Cl)c3)c(=S)n2/N=C/c2ccc(-c3ccc(Cl)cc3Cl)o2)ccc1Cl: inactive
S=c1[nH]nc(COc2ccc(Cl)cc2Cl)n1/N=C/c1ccc(-c2ccc(Cl)cc2Cl)o1: inactive
Cc1cc(OCc2n[nH]c(=S)n2/N=C/c2ccc(-c3ccc(Cl)cc3Cl)o2)ccc1Cl: inactive
